Kindly state Pre-emergence action against ABUTH (herbicidal activity) for each of the entries shown.
Tested on: ABUTH
Protocol Text: Pre-emergence herbicidal action against ABUTH
Assay type: in vivo, Abutilon theophrasti
Condition Summary: 80 g/ha, scored visually after 3 weeks vs untreated controls (100% = plants have died, 0% = like control plants)
The answer is to be given in %; state only the numeric part.

## Task Entry CCn1nnnc1NC(=O)c1ccc(Br)c(C(=O)NC(C)C)c1Cl has what Pre-emergence action against ABUTH (herbicidal activity)?
## Result 100

## Task Entry CCn1nnnc1NC(=O)c1ccc(Br)c(C(=O)NC(C)C2CC2)c1Cl (stereo not drawn) has what Pre-emergence action against ABUTH (herbicidal activity)?
## Result 100

## Task Entry N#CCNC(=O)c1c(C(F)(F)F)ccc(C(=O)Nc2nnco2)c1Cl has what Pre-emergence action against ABUTH (herbicidal activity)?
## Result 100
